Tested on: IGROV1 complex spheroids (HUVEC, MSC), viability % test/control
assay_remarks: Anticancer human tumor IGROV1 cell line growth inhibition [GQUAD];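 further: spheroids exposed to compounds for 7 days before readout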
conditions_used: second compound 0.316 µM; first compound 0.0316 µM; stronger effect = lower value
Lab note: compare viability, T/C with 50%, writing criterion met if less and criterion not met if equal or more.

compound: CCc1c2c(nc3ccc(O)cc13)-c1cc3c(c(=O)n1C2)COC(=O)[C@]3(O)CC + Cc1[nH]c2ccc(F)cc2c1-c1nc2c3cccnc3c3ncccc3c2[nH]1
target_under_test: IGROV1 complex spheroids (HUVEC, MSC), viability % test/control
group_label: criterion met

compound: CC1COCCN1c1cc(-c2ccnn2C)c2ccnc(-c3ccn[nH]3)c2n1 (stereo not given) + CN(C)c1ccc(Nc2c3ccc(NC(=O)CCN4CCCC4)cc3nc3cc(NC(=O)CCN4CCCC4)ccc23)cc1
target_under_test: IGROV1 complex spheroids (HUVEC, MSC), viability % test/control
group_label: criterion not met

compound: CC(C)n1c(=O)n(C)c2cnc3cc(F)c(-c4ccc(OCCCN5CCCCC5)nc4)cc3c21 + Cc1cnc(CNC(=O)c2c(=O)c3ccc(N4CCCN(C)CC4)nc3n3c2sc2ccccc23)cn1
target_under_test: IGROV1 complex spheroids (HUVEC, MSC), viability % test/control
group_label: criterion met

compound: COc1ncnc(C2CC2)c1-c1ncc2cnn(Cc3ccc(-c4nc(C(F)(F)F)cn4C(C)C)cc3)c2n1 + Cc1cnc(CNC(=O)c2c(=O)c3ccc(N4CCCN(C)CC4)nc3n3c2sc2ccccc23)cn1
target_under_test: IGROV1 complex spheroids (HUVEC, MSC), viability % test/control
group_label: criterion met

compound: CC(=O)O[C@H]1C(=O)[C@@]2(C)[C@H]([C@H](OC(=O)c3ccccc3)[C@]3(O)C[C@H](OC(=O)[C@H](O)[C@@H](NC(=O)c4ccccc4)c4ccccc4)C(C)=C1C3(C)C)[C@]1(OC(C)=O)CO[C@@H]1C[C@@H]2O + Cc1cnc(CNC(=O)c2c(=O)c3ccc(N4CCCN(C)CC4)nc3n3c2sc2ccccc23)cn1
target_under_test: IGROV1 complex spheroids (HUVEC, MSC), viability % test/control
group_label: criterion met

compound: COc1ccc([C@@H](O)c2cc(-c3ncnc4cc(N5CCOCC5)ccc34)c(F)cc2Cl)nn1 + CN(C)c1ccc(Nc2c3ccc(NC(=O)CCN4CCCC4)cc3nc3cc(NC(=O)CCN4CCCC4)ccc23)cc1
target_under_test: IGROV1 complex spheroids (HUVEC, MSC), viability % test/control
group_label: criterion not met

compound: Cc1cccc(N(C)C(=O)C2C(O)CCN2c2nc(C)cc(C(F)(F)F)c2C#N)c1 (stereo not given) + Cc1[nH]c2ccc(F)cc2c1-c1nc2c3cccnc3c3ncccc3c2[nH]1
target_under_test: IGROV1 complex spheroids (HUVEC, MSC), viability % test/control
group_label: criterion not met

compound: CC(=O)O[C@H]1C(=O)[C@@]2(C)[C@H]([C@H](OC(=O)c3ccccc3)[C@]3(O)C[C@H](OC(=O)[C@H](O)[C@@H](NC(=O)c4ccccc4)c4ccccc4)C(C)=C1C3(C)C)[C@]1(OC(C)=O)CO[C@@H]1C[C@@H]2O + Cc1[nH]c2ccc(F)cc2c1-c1nc2c3cccnc3c3ncccc3c2[nH]1
target_under_test: IGROV1 complex spheroids (HUVEC, MSC), viability % test/control
group_label: criterion met

compound: CC1COCCN1c1cc(C2(S(C)(=N)=O)CC2)nc(-c2ccnc3[nH]ccc23)n1 (stereo not given) + Cc1[nH]c2ccc(F)cc2c1-c1nc2c3cccnc3c3ncccc3c2[nH]1
target_under_test: IGROV1 complex spheroids (HUVEC, MSC), viability % test/control
group_label: criterion not met

compound: CC[C@@]1(O)C(=O)OCc2c1cc1n(c2=O)Cc2cc3c(CN(C)C)c(O)ccc3nc2-1 + Cc1[nH]c2ccc(F)cc2c1-c1nc2c3cccnc3c3ncccc3c2[nH]1
target_under_test: IGROV1 complex spheroids (HUVEC, MSC), viability % test/control
group_label: criterion met
